Species: Rattus norvegicus
Assay: Selectivity index, ratio of IC50 for rat serum BuChE to IC50 for rat cortex AChE
Rule: class 1 for Ratio IC50 not less than 200, class 0 for anything less.

COc1ccccc1CN(C)CCCCOc1cccc(-c2cc(=O)c3c(OC)c(OC)c(OC)cc3o2)c1; class 0
COc1cc2oc(-c3cccc(OCCCCN4CCN(C)CC4)c3)cc(=O)c2c(OC)c1OC; class 1
COc1ccccc1CN(C)CCCOc1cccc(-c2cc(=O)c3c(O)c(OC)c(OC)cc3o2)c1; class 0
CCN(CCCCOc1ccc(-c2cc(=O)c3c(OC)c(OC)c(OC)cc3o2)cc1)Cc1ccccc1OC; class 1
COc1cc2oc(-c3cccc(OCCCN4CCN(Cc5ccccc5)CC4)c3)cc(=O)c2c(OC)c1OC; class 0

For this compound, is measured Ratio IC50 200 or higher? "CCN(CCCOc1cccc(-c2cc(=O)c3c(OC)c(OC)c(OC)cc3o2)c1)Cc1ccccc1OC"
class 1

Now the compound "CCN(CCCCCCOc1cccc(-c2cc(=O)c3c(O)c(OC)c(OC)cc3o2)c1)Cc1ccccc1OC"
class 1
